- Target or system: T1, Anti-PSMA Fab (SEQ ID NOs: 19, 20)
- T1 construct: In the panning ELISA the Fab was biotinylated and captured on neutravidin coated plates; also called 006 PSMA Fab
- Assay: phage binding ELISA; biotinylated PSMA Fab on neutravidin plate pre-incubated with PSMA antigen (competitor), anti-M13 HRP detection;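 note: competition ELISA where clonal phage supernatants were added to wells preincubated with PSMA antigen or with blocking buffer only as control, bound phage read via HRP-coupled anti-M13 antibody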
Each entry below carries its recorded Anti-PSMA Fab signal in the presence of PSMA.
Quantity: Anti-PSMA Fab signal in the presence of PSMA

1. AIKWCIPSWMCVED (tested as crude clonal phage supernatant; also called AIKWCIPSWMCVED) [Phage-1890]: 0.0876
2. FAKWCIPEWMCSVS (tested as crude clonal phage supernatant) [Phage-1885]: 0.119
3. DVMWCKPSWMCDWL (tested as crude clonal phage supernatant) [Phage-1889]: 0.127
4. WSNWCTPEWMCVGF (tested as crude clonal phage supernatant) [Phage-1888]: 0.0814
